Provide the recorded melting point for the entries that follow.
Counter-ions that a name gives are not always drawn.
Answers are plain numbers, in °C.

The measured melting point associated with CCN(CCNC(=O)c1ccc2ccccc2c1)C1CCc2ncsc2C1 (centres unmarked) (as salt: salt) reads 110

Report melting point for every entry below.
1. CCCN(CCCCNC(=O)C1CCc2ccccc2C1)C1CCc2ncsc2C1 (centres unmarked) (as salt: salt)
2. CCCN(CCCCNC(=O)N1CCc2cc(OC)c(OC)cc2C1)C1CCc2ncsc2C1 (centres unmarked) (as salt: salt)
3. CCCN(CCCCNC(=O)N1CCC(c2ccccc2)CC1)C1CCc2ncsc2C1 (centres unmarked) (as salt: salt)

// result
1: 138; 2: 106; 3: 56

# per-item lookup of melting point; items listed below
1. CCCN(CCCN1CCN(c2cccc(Cl)c2Cl)CC1)C1CCc2ncsc2C1 (centres unmarked) (as salt: salt)
2. CCCN(Cc1ccc(C(=O)NC2Cc3ccccc3C2)cc1)C1CCc2ncsc2C1 (centres unmarked)
3. CCN(CCN1CCN(c2ccccc2OC)CC1)C1CCc2ncsc2C1 (centres unmarked) (as salt: salt)

// result
110
65
108

Value of measured melting point for the entry CCCN(Cc1ccc(C(=O)N2CCN(c3ccccc3)CC2)cc1)C1CCc2ncsc2C1 (centres unmarked) : 70

* * *

Molecular target: recombinant human D2(short) dopamine receptor (Homo sapiens, UniProt P14416)
Sequence (P14416 1-414 isoform P14416-2): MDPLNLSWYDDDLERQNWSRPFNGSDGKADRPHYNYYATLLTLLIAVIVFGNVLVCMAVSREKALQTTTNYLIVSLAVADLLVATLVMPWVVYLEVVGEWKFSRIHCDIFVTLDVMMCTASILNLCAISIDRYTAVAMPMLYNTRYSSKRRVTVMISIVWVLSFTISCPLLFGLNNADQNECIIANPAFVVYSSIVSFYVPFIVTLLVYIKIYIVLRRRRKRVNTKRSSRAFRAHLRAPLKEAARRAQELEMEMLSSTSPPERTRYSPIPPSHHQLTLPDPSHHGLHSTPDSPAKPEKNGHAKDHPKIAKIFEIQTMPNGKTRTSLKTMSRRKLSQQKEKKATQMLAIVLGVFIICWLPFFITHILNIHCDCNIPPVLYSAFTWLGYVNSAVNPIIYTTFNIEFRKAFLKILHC
Assay: Dopamine D2S receptor binding assay ([3H]spiperone, CHO cell membranes)
Conditions: human D2S receptors in CHO cells, 0.2 nM [3H]spiperone, mean ± SEM; read-out: Affinity Ki (D2)
The following ranges of Ki define the classes used here: class 0 (below 500 nM), class 1 (500 nM to below 3000 nM), class 2 (3000 nM or more)

// query Exam item: assign CCCN(CCCCNC(=O)N1Cc2ccccc2C1)C1CCc2ncsc2C1 (stereo not drawn) to the correct category.
// result class 2

* * *

Target: human dopamine D3 receptors (Homo sapiens, UniProt P35462)
Sequence (P35462 whole entry): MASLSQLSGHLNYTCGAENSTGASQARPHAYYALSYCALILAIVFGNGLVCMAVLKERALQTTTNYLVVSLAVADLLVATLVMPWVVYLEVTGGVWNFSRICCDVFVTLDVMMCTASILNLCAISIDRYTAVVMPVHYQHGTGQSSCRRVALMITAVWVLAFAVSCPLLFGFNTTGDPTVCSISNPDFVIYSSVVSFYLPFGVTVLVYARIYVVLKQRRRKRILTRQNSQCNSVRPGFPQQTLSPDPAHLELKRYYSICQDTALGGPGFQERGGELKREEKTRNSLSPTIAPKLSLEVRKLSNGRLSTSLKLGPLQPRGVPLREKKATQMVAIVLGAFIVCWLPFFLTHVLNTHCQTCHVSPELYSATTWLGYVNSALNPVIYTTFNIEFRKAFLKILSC
Assay: Dopamine D3 receptor binding assay ([3H]spiperone, CHO cell membranes)
Details: human D3 receptors in CHO cells, 0.2 nM [3H]spiperone, mean ± SEM; read-out: Affinity Ki (D3)
Would you kindly list pKi for each of these compounds?
One number for each entry, as −log10 of the molar value.

// worked examples, pKi included
Field pKi (entry CCCN(CCCCNC(=O)c1cnc(-c2ccc(Cl)cc2)s1)C1CCc2ncsc2C1 (stereo not shown) ) reads 7.08

The compound CCCN(CCCCNC(=O)N1CCc2cc(OC)c(OC)cc2C1)C1CCc2ncsc2C1 (stereo not shown) showed pKi equal to 8.57

Form field pKi, entry CCCN(Cc1ccc(C(=O)N(CCC)C2CCc3ncsc3C2)cc1)C1CCc2ncsc2C1 (stereo not shown) : 6.20

Query CCCN(CCCCNC(=O)C1CCCCC1)C1CCc2ncsc2C1 (stereo not shown) yields pKi of 8.58

Looking up CCCN(CCN1CCN(c2ccccc2OC)CC1)C1CCc2ncsc2C1 (stereo not shown) , I see its pKi listed as 8.35

Sample CCN(CCCCNC(=O)c1ccc2ccccc2c1)C1CCc2ncsc2C1 (stereo not shown) ; pKi observed: 8.57

Entry under test: CCN(CCCCNC(=O)c1ccc2ncsc2c1)C1CCc2ncsc2C1 (stereo not shown) . Its pKi was 8.25

Record CCN(CCN1CCc2ccccc2C1)C1CCc2ncsc2C1 (stereo not shown) . Reported pKi: 7.58

Entry CCCN(CCCCNC(=O)N1Cc2ccccc2C1)C1CCc2ncsc2C1 (stereo not shown) ; pKi = 8.65

The compound listed as CCCN(CCCCNC(=O)N1CC=C(c2ccccc2)CC1)C1CCc2ncsc2C1 (stereo not shown) shows pKi equal to 8.14

# return pKi for each item in the list
1. CCCN(CCCCC(=O)NC12CC3CC(CC(C3)C1)C2)C1CCc2ncsc2C1 (stereo not shown)
2. CCN(CCN1CCN(c2ccccc2OC)CC1)C1CCc2ncsc2C1 (stereo not shown)
3. CCCN(CCCCNC(=O)c1ccccc1)C1CCc2ncsc2C1 (stereo not shown)
4. CCCN(CCCCC(=O)N1CCN(c2ccccc2)CC1)C1CCc2ncsc2C1 (stereo not shown)
5. CCN(CCCCNC(=O)c1cc2ccccc2s1)C1CCc2ncsc2C1 (stereo not shown)

// result
8.81
7.87
8.65
8.14
8.53

Data provenance is patent US8389555B2.
